Origin of values: ChEMBL document CHEMBL4043187

- MEASURED_TARGET: Cyclin-dependent kinase 5/CDK5 activator 1 (Homo sapiens) (UniProt Q00535+Q15078)
- Sequence (Q00535 whole entry): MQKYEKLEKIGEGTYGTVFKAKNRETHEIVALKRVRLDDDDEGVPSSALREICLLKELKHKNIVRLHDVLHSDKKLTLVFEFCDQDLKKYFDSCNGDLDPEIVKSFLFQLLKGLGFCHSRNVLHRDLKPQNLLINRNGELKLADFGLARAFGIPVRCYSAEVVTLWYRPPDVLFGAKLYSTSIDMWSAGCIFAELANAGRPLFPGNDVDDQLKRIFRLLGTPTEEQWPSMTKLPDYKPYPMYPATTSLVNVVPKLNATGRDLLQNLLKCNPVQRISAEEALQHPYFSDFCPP
- Sequence (Q15078 99-307 partner limits assumed): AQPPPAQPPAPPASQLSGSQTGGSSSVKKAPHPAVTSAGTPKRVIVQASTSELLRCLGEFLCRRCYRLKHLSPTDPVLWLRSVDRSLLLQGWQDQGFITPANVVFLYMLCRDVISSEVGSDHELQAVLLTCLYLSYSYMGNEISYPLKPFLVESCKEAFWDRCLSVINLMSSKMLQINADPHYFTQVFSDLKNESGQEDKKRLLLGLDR
- ASSAY_EXPLANATION: Inhibition of CDK5/p35 (unknown origin) using ULingt-4E-BP as substrate at 25 nM after 1 hr in presence of ATP by fluorescence assay relative to control
- Format: protein-complex assay
QUANTITY: inhibition

Here's what some known entries look like.
INSERT INTO assay_data (given_smiles, recorded_value) VALUES
  ('O=C(N[C@H]1C[C@@H](n2cnc3c(NCc4cccnc4)ncnc32)C1)C1CCOCC1', '< 50%'),
  ('O=C(N[C@H]1C[C@@H](n2cnc3c(NCc4cccnc4)ncnc32)C1)c1cccnc1', '< 50%'),
  ('Cc1cccc(C(=O)N[C@H]2C[C@@H](n3cnc4c(NCc5ccccc5Cl)ncnc43)C2)n1', '59%'),
  ('Cc1cccc(C(=O)N[C@H]2C[C@@H](n3cnc4c(NCc5ccncc5)ncnc43)C2)n1', '< 50%'),
  ('COc1cc(Cl)ccc1C(=O)N[C@H]1C[C@@H](n2cnc3c(NCc4cccnc4)ncnc32)C1', '< 50%'),
  ('COc1ccc(Nc2ncnc3c2ncn3[C@H]2C[C@@H](NC(=O)c3cccc(C)n3)C2)cc1', '63%'),
  ('O=C(N[C@H]1C[C@@H](n2cnc3c(NCc4cccnc4)ncnc32)C1)c1c(Cl)cccc1Cl', '64%'),
  ('O=C(N[C@H]1C[C@@H](n2cnc3c(NCc4cccnc4)ncnc32)C1)c1ccccc1', '< 50%');

Query :: Provide value of inhibition for this record tested with Cyclin-dependent kinase 5/CDK5 activator 1 (Homo sapiens) (UniProt Q00535+Q15078): CS(=O)(=O)N1CCC(C(=O)N[C@H]2C[C@@H](n3cnc4c(NCc5cccnc5)ncnc43)C2)CC1
Result :: 48%

Query :: # query: inhibition | item Cc1cccc(C(=O)N[C@H]2C[C@@H](n3cnc4c(NCc5ccc(C#N)cc5)ncnc43)C2)n1 | system: Cyclin-dependent kinase 5/CDK5 activator 1 (Homo sapiens) (UniProt Q00535+Q15078)
Result :: < 50%

Query :: Request - read-out inhibition | tested on Cyclin-dependent kinase 5/CDK5 activator 1 (Homo sapiens) (UniProt Q00535+Q15078) | molecule COc1ccc(CNc2ncnc3c2ncn3[C@H]2C[C@@H](NC(=O)c3cccc(C)n3)C2)cc1
Result :: 81%

Query :: Which inhibition is reported with Cyclin-dependent kinase 5/CDK5 activator 1 (Homo sapiens) (UniProt Q00535+Q15078) for this entry: Cc1cccc(C(=O)N[C@H]2C[C@@H](n3cnc4c(NCc5ccccc5C)ncnc43)C2)n1 ?
Result :: < 50%

====

- MEASURED_TARGET: CDK4/Cyclin D3 (Homo sapiens, UniProt P11802)
- Sequence (P11802 whole entry): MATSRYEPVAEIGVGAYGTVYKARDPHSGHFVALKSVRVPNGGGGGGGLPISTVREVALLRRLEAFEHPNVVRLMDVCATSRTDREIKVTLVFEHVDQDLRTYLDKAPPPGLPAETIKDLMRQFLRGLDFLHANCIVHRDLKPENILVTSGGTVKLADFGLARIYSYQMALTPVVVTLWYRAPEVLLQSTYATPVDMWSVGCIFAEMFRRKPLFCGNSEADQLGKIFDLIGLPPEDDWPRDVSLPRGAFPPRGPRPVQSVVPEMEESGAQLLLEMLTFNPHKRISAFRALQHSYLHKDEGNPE
- Sequence (P30281 whole entry, further chain): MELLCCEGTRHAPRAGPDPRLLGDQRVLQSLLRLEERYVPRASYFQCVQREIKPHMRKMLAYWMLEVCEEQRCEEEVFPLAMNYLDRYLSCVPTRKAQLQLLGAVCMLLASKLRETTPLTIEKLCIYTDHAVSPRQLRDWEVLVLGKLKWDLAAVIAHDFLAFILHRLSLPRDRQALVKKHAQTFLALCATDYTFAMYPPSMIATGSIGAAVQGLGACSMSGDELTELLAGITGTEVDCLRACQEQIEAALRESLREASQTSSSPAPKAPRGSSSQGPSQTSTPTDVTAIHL
- ASSAY_EXPLANATION: Inhibition of human CDK4/CyclinD3
QUANTITY: pIC50
Keep it numeric: pIC50 is minus log10 of the concentration in mol/L.

Query :: Query the reported pIC50 for CDK4/Cyclin D3 (Homo sapiens, UniProt P11802); item: Cc1cccc(C(=O)N[C@H]2C[C@@H](n3cnc4c(NCc5cccc(Br)c5)ncnc43)C2)n1
Result :: 6.21

====

- MEASURED_TARGET: CDK7/Cyclin H/MNAT1 (Homo sapiens, UniProt P50613)
- Sequence (P51946 whole entry): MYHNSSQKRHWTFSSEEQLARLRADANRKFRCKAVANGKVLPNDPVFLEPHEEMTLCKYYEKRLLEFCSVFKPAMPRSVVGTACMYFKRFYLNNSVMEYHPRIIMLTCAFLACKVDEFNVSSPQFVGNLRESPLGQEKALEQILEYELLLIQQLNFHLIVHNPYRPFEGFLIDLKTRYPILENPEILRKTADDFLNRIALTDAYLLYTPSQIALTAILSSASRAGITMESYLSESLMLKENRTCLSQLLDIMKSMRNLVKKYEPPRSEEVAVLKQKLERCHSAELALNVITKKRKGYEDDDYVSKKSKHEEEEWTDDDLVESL
- Sequence (P50613 whole entry): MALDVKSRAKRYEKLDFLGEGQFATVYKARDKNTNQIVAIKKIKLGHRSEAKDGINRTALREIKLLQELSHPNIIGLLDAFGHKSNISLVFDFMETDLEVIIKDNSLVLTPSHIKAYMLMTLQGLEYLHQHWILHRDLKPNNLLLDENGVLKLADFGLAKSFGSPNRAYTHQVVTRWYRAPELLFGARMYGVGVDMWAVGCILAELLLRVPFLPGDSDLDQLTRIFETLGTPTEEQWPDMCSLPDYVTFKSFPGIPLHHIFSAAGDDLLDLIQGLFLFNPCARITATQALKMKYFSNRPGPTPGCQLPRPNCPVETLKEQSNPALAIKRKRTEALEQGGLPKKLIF
- Sequence (P51948 whole entry, further chain): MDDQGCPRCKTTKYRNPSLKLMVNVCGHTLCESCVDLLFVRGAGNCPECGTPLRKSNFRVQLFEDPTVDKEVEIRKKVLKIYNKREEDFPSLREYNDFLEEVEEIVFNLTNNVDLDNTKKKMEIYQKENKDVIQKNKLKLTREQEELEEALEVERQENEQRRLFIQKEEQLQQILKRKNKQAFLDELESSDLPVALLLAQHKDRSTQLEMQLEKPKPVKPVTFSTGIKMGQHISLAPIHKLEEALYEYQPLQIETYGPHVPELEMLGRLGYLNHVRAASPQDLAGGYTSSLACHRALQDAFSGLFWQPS
- ASSAY_EXPLANATION: Inhibition of human CDK7/CyclinH/MAT1
pIC50: −log10 of the molar value.
QUANTITY: pIC50

INSERT INTO assay_data (given_smiles, measured_target, quantity, recorded_value) VALUES
  ('Cc1cccc(C(=O)N[C@H]2C[C@@H](n3cnc4c(NCc5cccc(Cl)c5)ncnc43)C2)n1', 'CDK7/Cyclin H/MNAT1 (Homo sapiens, UniProt P50613)', 'pIC50', 6.50),
  ('Cc1cccc(C(=O)N[C@H]2C[C@@H](n3cnc4c(NCc5cccc(Br)c5)ncnc43)C2)n1', 'CDK7/Cyclin H/MNAT1 (Homo sapiens, UniProt P50613)', 'pIC50', 6.44);

====

- MEASURED_TARGET: Cyclin-dependent kinase 5/CDK5 activator 1 (Homo sapiens, UniProt Q00535)
- Sequence (Q00535 whole entry): as the sequence (Q00535 whole entry) above
- Sequence (Q15078 whole entry, further chain): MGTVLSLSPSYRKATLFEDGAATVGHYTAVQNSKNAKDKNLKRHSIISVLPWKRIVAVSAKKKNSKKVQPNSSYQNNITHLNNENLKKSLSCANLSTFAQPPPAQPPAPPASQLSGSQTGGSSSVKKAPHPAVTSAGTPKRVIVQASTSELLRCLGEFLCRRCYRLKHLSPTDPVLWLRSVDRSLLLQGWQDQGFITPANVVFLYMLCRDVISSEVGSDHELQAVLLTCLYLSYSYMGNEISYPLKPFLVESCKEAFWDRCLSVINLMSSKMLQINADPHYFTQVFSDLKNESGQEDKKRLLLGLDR
- ASSAY_EXPLANATION: Inhibition of CDK5/p35 (unknown origin) using ULingt-4E-BP as substrate after 1 hr in presence of ATP by fluorescence assay
QUANTITY: IC50 (nM)

Some entries whose results are on file:
INSERT INTO assay_data (given_smiles, recorded_value) VALUES
  ('O=C(N[C@H]1C[C@@H](n2cnc3c(NCc4cccnc4)ncnc32)C1)c1cccc(C(F)(F)F)n1', 23),
  ('Cc1cccc(C(=O)N[C@H]2C[C@@H](n3cnc4c(NCc5cccc(Br)c5)ncnc43)C2)n1', 4.8),
  ('Cc1cccc(C(=O)N[C@H]2C[C@@H](n3cnc4c(NCc5ccc(F)c(F)c5)ncnc43)C2)n1', 13),
  ('Cc1cccc(C(=O)N[C@H]2C[C@@H](n3cnc4c(NCc5cccnc5)ncnc43)C2)n1', 10);

a. CC(=O)N1CCC(Nc2ncnc3c2ncn3[C@H]2C[C@@H](NC(=O)c3cccc(C)n3)C2)CC1
b. CC(=O)N[C@H]1CC[C@@H](Nc2ncnc3c2ncn3[C@H]2C[C@@H](NC(=O)c3cccc(C)n3)C2)CC1
Query :: Quick check, higher IC50 between a and b ? Field: selected label. Fill in the label of the entry you choose.
Result :: a
(a: 179 nM, b: 27 nM)

====

- MEASURED_TARGET: Cyclin-dependent kinase 5/CDK5 activator 1 (Homo sapiens) (UniProt Q00535+Q15078)
- ASSAY_EXPLANATION: Inhibition of CDK5/p35 (unknown origin) using ULingt-4E-BP as substrate at 25 nM after 1 hr in presence of ATP by fluorescence assay relative to control
- Type: protein-complex assay
QUANTITY: inhibition (%)

INSERT INTO measurements (given_smiles, measured_target, unit, recorded_value) VALUES
  ('Cc1cccc(C(=O)N[C@H]2C[C@@H](n3cnc4c(NCc5ccccc5F)ncnc43)C2)n1', 'Cyclin-dependent kinase 5/CDK5 activator 1 (Homo sapiens) (UniProt Q00535+Q15078)', '%', 55),
  ('Cc1cccc(C(=O)N[C@H]2C[C@@H](n3cnc4c(NCc5cccc(C(F)(F)F)c5)ncnc43)C2)n1', 'Cyclin-dependent kinase 5/CDK5 activator 1 (Homo sapiens) (UniProt Q00535+Q15078)', '%', 72),
  ('Cc1cccc(C(=O)N[C@H]2C[C@@H](n3cnc4c(NCc5ccc(C(F)(F)F)cc5)ncnc43)C2)n1', 'Cyclin-dependent kinase 5/CDK5 activator 1 (Homo sapiens) (UniProt Q00535+Q15078)', '%', 58),
  ('Cc1cccc(C(=O)N[C@H]2C[C@@H](n3cnc4c(NCc5ccc(OC(F)(F)F)cc5)ncnc43)C2)n1', 'Cyclin-dependent kinase 5/CDK5 activator 1 (Homo sapiens) (UniProt Q00535+Q15078)', '%', 54);

====

- MEASURED_TARGET: Cyclin-dependent kinase 1/cyclin B1 (Homo sapiens, UniProt P06493)
- Sequence (P06493 whole entry): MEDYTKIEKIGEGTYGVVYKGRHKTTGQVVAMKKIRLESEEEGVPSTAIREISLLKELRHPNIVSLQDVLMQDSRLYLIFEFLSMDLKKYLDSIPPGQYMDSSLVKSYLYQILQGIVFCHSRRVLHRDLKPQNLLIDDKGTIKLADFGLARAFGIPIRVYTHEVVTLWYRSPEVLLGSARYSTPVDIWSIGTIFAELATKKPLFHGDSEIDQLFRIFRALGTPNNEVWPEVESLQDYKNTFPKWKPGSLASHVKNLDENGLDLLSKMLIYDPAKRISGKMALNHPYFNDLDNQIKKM
- Sequence (P14635 whole entry, further chain): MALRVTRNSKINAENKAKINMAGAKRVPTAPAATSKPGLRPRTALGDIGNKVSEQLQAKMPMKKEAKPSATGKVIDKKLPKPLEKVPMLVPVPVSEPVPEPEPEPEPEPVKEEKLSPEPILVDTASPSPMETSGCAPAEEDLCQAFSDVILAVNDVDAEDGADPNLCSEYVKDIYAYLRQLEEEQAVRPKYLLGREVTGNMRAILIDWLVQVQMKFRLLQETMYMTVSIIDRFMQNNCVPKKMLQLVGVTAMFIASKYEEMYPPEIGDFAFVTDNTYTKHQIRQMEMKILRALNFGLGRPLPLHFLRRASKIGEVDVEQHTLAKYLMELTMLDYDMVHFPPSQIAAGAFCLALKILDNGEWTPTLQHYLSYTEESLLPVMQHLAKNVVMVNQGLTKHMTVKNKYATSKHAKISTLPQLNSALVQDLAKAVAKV
- ASSAY_EXPLANATION: Inhibition of human CDK1/CyclinB
QUANTITY: IC50 (nM)

INSERT INTO assay_data (given_smiles, unit, recorded_value) VALUES
  ('Cc1cccc(C(=O)N[C@H]2C[C@@H](n3cnc4c(NCc5cccc(Br)c5)ncnc43)C2)n1', 'nM', 24),
  ('Cc1cccc(C(=O)N[C@H]2C[C@@H](n3cnc4c(NCc5cccc(Cl)c5)ncnc43)C2)n1', 'nM', 23);

====

- MEASURED_TARGET: CDK2/Cyclin A2 (Homo sapiens, UniProt P24941)
- ASSAY_EXPLANATION: Inhibition of CDK2/CyclinA (unknown origin) using ULingt-4E-BP as substrate after 1 hr in presence of ATP by fluorescence assay
- Format: protein-complex assay
QUANTITY: IC50 (nM)

Study these solved cases before continuing.
INSERT INTO assay_data (given_smiles, recorded_value) VALUES
  ('COc1cccc(Nc2ncnc3c2ncn3[C@H]2C[C@@H](NC(=O)c3cccc(C)n3)C2)c1', 18),
  ('Cc1cccc(C(=O)N[C@H]2C[C@@H](n3cnc4c(NC5CCNCC5)ncnc43)C2)n1', 379),
  ('Cc1cccc(C(=O)N[C@H]2C[C@@H](n3cnc4c(NCc5ccc(F)c(F)c5)ncnc43)C2)n1', 29),
  ('Cc1cccc(C(=O)N[C@H]2C[C@@H](n3cnc4c(NCc5ccc(Cl)c(Cl)c5)ncnc43)C2)n1', 77),
  ('CC(=O)N[C@H]1CC[C@@H](Nc2ncnc3c2ncn3[C@H]2C[C@@H](NC(=O)c3cccc(C)n3)C2)CC1', 112);

A. Cc1cccc(C(=O)N[C@H]2C[C@@H](n3cnc4c(NCc5cccnc5)ncnc43)C2)n1
B. Cc1cccc(C(=O)N[C@H]2C[C@@H](n3cnc4c(NCc5cccc(Cl)c5)ncnc43)C2)n1
Query :: Please tell me which of the two, A or B , has the higher reported IC50 value. Give the label of your selection.
Result :: A
